A set of compounds tested on hERG-receptor (Homo sapiens (Human), UniProt Q12809), with measured IC50:
property: IC50 (µM)

smilesData | property | rel | valueReported
Clc1ccc(-n2cc(Cn3ncnc3C3CCC3)nn2)cc1 | IC50 | > | 100
Cc1nccn1Cc1cn(-c2ccc(F)c(C(C)(F)F)c2)nn1 | IC50 | = | 73.1
CC(C)(C)c1ncn(Cc2cn(-c3ccc(Cl)cc3)nn2)n1 | IC50 | = | 35.6
CCCc1ncnn1Cc1cn(-c2ccc(Cl)cc2)nn1 | IC50 | = | 0.032
CS(=O)(=O)c1cccc(-n2cc(Cn3ccnc3CCO)nn2)c1 | IC50 | > | 100
